assayedSystem: NAD-dependent protein deacetylase sirtuin-1 (Homo sapiens)
Sequence (whole entry): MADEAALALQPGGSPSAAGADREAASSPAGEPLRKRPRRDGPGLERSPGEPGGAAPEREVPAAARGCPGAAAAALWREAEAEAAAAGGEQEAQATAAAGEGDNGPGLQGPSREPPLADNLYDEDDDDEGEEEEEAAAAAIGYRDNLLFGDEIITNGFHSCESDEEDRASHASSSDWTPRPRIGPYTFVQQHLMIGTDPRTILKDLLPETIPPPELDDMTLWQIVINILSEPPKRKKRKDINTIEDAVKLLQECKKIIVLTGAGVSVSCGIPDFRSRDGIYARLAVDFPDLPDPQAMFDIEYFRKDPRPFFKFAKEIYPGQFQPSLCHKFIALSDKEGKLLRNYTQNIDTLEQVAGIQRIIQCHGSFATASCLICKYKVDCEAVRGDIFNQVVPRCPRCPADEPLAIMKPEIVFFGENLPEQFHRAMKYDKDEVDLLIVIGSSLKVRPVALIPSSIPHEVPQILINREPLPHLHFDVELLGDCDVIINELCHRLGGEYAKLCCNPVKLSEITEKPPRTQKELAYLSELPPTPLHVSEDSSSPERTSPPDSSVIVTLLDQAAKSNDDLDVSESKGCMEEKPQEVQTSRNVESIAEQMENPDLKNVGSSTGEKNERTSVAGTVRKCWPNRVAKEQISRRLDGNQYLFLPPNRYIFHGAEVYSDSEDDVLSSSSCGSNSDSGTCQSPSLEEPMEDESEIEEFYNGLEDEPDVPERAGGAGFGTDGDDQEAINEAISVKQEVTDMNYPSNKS
protocolDescription: Activation of human SIRT1 expressed in Escherichia coli BL21Start assessed as concentration required to increase 50% enzyme activity by mass spectrometry assay
# log10 of Activity values compiled below
All values: log10 Activity [µM].

O=C(Nc1ccccc1-c1cn2c(CN3CCNCC3)csc2n1)c1cccc(SC(F)F)c1 | -0.29

[Q] Note down log10 of Activity recorded for COc1cc(C(=O)Nc2cccc(-c3cn4ccsc4n3)c2)cc(OC)c1OC
[A] 0.88

[Q] Recall and state the measured log10 of Activity for O=C(Nc1ccccc1-c1cn2c(CN3CCNCC3)csc2n1)c1cccc2cccnc12 .
[A] 1.65

[Q] Give log10 of Activity for the following compound: COc1ccc(C(=O)Nc2ccccc2-c2cn3c(CN4CCNCC4)csc3n2)cc1F
[A] 0.79

[Q] Report log10 of Activity for COc1cc(C(=O)Nc2ccccc2-c2cn3c(CN4CCNCC4)csc3n2)cc(OC)c1OC
[A] 0.26

[Q] Using the record for COc1cc(C(=O)Nc2ccccc2-c2cn3cc(CN4CCNCC4)sc3n2)cc(OC)c1OC , state its measured log10 of Activity.
[A] 0.51

----------
protocolDescription: AUC in Sprague-Dawley rat at 100 mg/kg, po or 10 mg/kg, iv
Type: ADME, organism-based
particulars: plasma
measurementType: AUC (ng·h/mL)
Respond with the bare value in ng·h/mL.

[Q] // Input: O=C(Nc1ccccc1-c1cn2c(CN3CCNCC3)csc2n1)c1cnc2ccccc2n1 . Output its AUC only.
[A] 3700

----------
protocolDescription: Solubility in buffer at pH 7.4 by HPLC method
Type: physicochemical
measurementType: solubility

[Q] Answer with the recorded solubility of COc1cc(C(=O)Nc2ccccc2-c2cn3c(CN4CCNCC4)csc3n2)cc(OC)c1OC only.
[A] > 100 µM

----------
assayedSystem: UniProt Q96EB6
Sequence (whole entry): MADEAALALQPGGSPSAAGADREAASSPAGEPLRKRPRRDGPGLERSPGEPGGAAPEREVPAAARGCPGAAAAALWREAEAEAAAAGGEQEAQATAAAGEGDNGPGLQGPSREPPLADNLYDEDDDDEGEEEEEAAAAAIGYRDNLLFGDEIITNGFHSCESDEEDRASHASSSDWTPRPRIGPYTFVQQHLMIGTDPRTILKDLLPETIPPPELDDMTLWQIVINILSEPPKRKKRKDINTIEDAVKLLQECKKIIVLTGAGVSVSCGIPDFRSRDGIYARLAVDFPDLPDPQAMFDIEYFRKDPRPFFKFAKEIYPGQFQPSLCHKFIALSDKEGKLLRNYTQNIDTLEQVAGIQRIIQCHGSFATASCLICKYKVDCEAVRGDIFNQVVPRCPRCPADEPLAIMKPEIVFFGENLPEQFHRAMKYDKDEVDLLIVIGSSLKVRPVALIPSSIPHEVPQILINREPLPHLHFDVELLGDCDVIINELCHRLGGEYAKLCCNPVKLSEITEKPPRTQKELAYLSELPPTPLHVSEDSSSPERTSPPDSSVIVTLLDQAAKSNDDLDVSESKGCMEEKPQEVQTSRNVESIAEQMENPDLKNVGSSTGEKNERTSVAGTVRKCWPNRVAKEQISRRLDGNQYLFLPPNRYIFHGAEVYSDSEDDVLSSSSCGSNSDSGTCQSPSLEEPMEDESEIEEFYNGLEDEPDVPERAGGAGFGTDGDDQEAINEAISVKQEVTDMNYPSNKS
protocolDescription: Activation of human SIRT1 expressed in Escherichia coli BL21Start assessed as concentration required to increase 50% enzyme activity by mass spectrometry assay
Some compounds, each annotated with its measured Activity.
Field: numeric (µM). Do not append units.

Illustrative cases are given below, each with its answer.
O=C(Nc1ccccc1-c1cn2c(CN3CCNCC3)csc2n1)c1ccccc1 | 25
COc1cc(F)cc(C(=O)Nc2ccccc2-c2cn3c(CN4CCNCC4)csc3n2)c1 | 2.1

[Q] Find the measured Activity of COc1cc(C(=O)Nc2ccccc2-c2cn3c(CN(C)C)csc3n2)cc(OC)c1OC and report it.
[A] 1.9

[Q] Tell me Activity reported for O=C(Nc1ccccc1-c1cn2c(CN3CCNCC3)csc2n1)C1CCCC1
[A] 130

[Q] Consider the compound O=C(Nc1ccccc1-c1cn2c(CN3CCNCC3)csc2n1)c1ccc2occc2c1 . State its measured Activity.
[A] 6.9

[Q] Output Activity of Oc1ccc(/C=C/c2cc(O)cc(O)c2)cc1
[A] 48

[Q] Specify Activity for O=C(Nc1ccccc1-c1cn2c(CN3CCNCC3)csc2n1)c1cnc2ccccc2n1 and stop.
[A] 0.16

[Q] Answer with reported Activity of COc1ccc(C(=O)Nc2ccccc2-c2cn3c(CN4CCNCC4)csc3n2)cc1OC
[A] 4.5

[Q] Return Activity for the following compound: O=C(Nc1ccccc1-c1cn2c(CN3CCNCC3)csc2n1)c1ccc2c(c1)OCO2
[A] 4.9

[Q] Specify measured Activity for O=C(Nc1ccccc1-c1cn2c(CN3CCNCC3)csc2n1)c1cnc2ccccc2c1 .
[A] 0.68

[Q] Read off the recorded Activity for COc1ccc(C(=O)Nc2ccccc2-c2cn3c(CN4CCNCC4)csc3n2)c(OC)c1
[A] 31

[Q] // fetch Activity given entry COc1cc(C(=O)Nc2ccccc2-c2cn3cc(CN(C)C)sc3n2)cc(OC)c1OC
[A] 4.8

----------
Attribute: Activity
assayedSystem: NAD-dependent protein deacetylase sirtuin-1 (Homo sapiens) (UniProt Q96EB6)
protocolDescription: Activation of human SIRT1 expressed in Escherichia coli BL21Start assessed as concentration required to increase 50% enzyme activity by mass spectrometry assay
Hi! Could you send only the number? It should be in µM, unit omitted.

COc1cc(C(=O)Nc2cccc(-c3nc4ncccc4o3)c2)cc(OC)c1OC | 11

[Q] For the molecule O=C(Nc1ccccc1-c1cn2c(CN3CCNCC3)csc2n1)c1cnccn1 , give its measured Activity value.
[A] 1.7

[Q] Supply reported Activity belonging to this molecule: O=C(Nc1ccccc1-c1cn2c(CN3CCNCC3)csc2n1)c1cc2ccccc2s1
[A] 24

[Q] // Input: O=C(Nc1ccccc1-c1cn2c(CN3CCNCC3)csc2n1)c1cccc(OC(F)(F)F)c1 . Output its Activity only.
[A] 0.9

[Q] Give recorded Activity. O=C(Nc1ccccc1-c1cn2c(CN3CCNCC3)csc2n1)c1ccc2ccccc2n1
[A] 0.99

----------
assayedSystem: Muscarinic acetylcholine receptor M2 (Homo sapiens)
Sequence (P08172 whole entry): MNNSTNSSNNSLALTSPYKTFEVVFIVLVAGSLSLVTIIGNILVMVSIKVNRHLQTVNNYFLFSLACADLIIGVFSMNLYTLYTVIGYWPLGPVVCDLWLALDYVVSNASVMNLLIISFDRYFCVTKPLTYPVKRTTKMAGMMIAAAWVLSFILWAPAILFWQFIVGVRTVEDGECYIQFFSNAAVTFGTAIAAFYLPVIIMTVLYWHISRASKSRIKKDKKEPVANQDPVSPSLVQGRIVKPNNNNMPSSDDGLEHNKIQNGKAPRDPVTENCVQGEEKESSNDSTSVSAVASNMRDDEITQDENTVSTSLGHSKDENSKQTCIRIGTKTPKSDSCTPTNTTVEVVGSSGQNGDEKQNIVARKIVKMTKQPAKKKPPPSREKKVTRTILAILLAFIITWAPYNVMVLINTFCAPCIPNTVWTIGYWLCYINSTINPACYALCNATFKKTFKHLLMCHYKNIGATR
measurementType: IC50 (µM)
Answer in µM, number only, no unit symbol.

[Q] # return recorded IC50 for input O=C(Nc1ccccc1-c1cn2c(CN3CCNCC3)csc2n1)c1cnc2ccccc2n1
[A] 6.28

----------
protocolDescription: Oral bioavailability in C57BL/6 mouse at 100 mg/kg
Format: ADME, organism-based
particulars: in vivo
measurementType: bioavailability (%)
Number in %, nothing else.

[Q] Please give measured bioavailability of the following entry: COc1cc(C(=O)Nc2ccccc2-c2cn3c(CN4CCNCC4)csc3n2)cc(OC)c1OC
[A] 40

----------
assayedSystem: NAD-dependent protein deacetylase sirtuin-1 (Homo sapiens)
protocolDescription: Activation of human SIRT1 expressed in Escherichia coli BL21Start assessed as maximum activation of enzyme activity by mass spectrometry assay
measurementType: Activity (%)
Quick note: give the figure in %, leave out the unit.

O=C(Nc1ccccc1-c1cn2c(CN3CCNCC3)csc2n1)c1cccc2cccnc12 | 208
O=C(Nc1ccccc1-c1cn2c(CN3CCNCC3)csc2n1)c1ccc2ccccc2n1 | 440
COc1cc(C(=O)Nc2ccccc2-c2cn3cc(CN4CCNCC4)sc3n2)cc(OC)c1OC | 257

[Q] Give the observed Activity of COc1cc(F)cc(C(=O)Nc2ccccc2-c2cn3c(CN4CCNCC4)csc3n2)c1 for NAD-dependent protein deacetylase sirtuin-1 (Homo sapiens).
[A] 662

[Q] Under NAD-dependent protein deacetylase sirtuin-1 (Homo sapiens): report Activity of O=C(Nc1ccccc1-c1cn2c(CN3CCNCC3)csc2n1)c1cnc2ccccc2c1 .
[A] 301

[Q] Please look at O=C(Nc1ccccc1-c1cn2c(CN3CCNCC3)csc2n1)c1cc2ccccc2o1 and tell me its recorded Activity on NAD-dependent protein deacetylase sirtuin-1 (Homo sapiens).
[A] 381
